Ref: patent US7256007B2

target: SOCS-3 (Mus musculus, UniProt O35718); construct: hexahistidine (pET15b) (N); made in house; host or cells: E. coli BL21 DE3 pLysS; assay: Competitive binding assay on the Biosensor: soluble peptide displaces SOCS-3 from immobilized gp130 (750-764) phosphopeptide; design: species or system murine; details: relative to gp130 (750-764) parent phosphopeptide
Sequence (O35718 whole entry): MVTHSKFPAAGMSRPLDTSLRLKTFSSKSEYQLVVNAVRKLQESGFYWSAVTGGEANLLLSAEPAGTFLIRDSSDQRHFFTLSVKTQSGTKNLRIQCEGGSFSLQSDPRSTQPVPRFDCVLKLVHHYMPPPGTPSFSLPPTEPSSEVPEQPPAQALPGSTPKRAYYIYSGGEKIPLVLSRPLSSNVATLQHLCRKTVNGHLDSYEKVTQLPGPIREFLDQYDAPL
Square brackets hold non-standard residues; d marks the D form. Peptide text beside a SMILES is read from it. pY = N[C@@H](Cc1ccc(OP(=O)(O)O)cc1)C(=O)O
attribute_measured: IC50 analogue/IC50 wild-type
Output: the number by itself.

molecule	system	IC50 analogue/IC50 wild-type
CC(=O)N[C@H](C(=O)N[C@@H](C)C(=O)N[C@@H](Cc1ccc(OP(=O)(O)O)cc1)C(=O)N[C@@H](CO)C(=O)N[C@H](C(=O)N[C@H](C(=O)N[C@H](C(=O)N[C@@H](Cc1c[nH]cn1)C(=O)N[C@@H](CO)C(=O)NCC(N)=O)C(C)C)C(C)C)[C@@H](C)O)C(C)C [AcVA(pY)STVVHSG] (Ac-VA[pY]STVVHSG-NH2)	SOCS-3 (Mus musculus, UniProt O35718)	5.0
CC(C)[C@H](NC(=O)[C@@H](NC(=O)[C@@H](NC(=O)[C@H](CO)NC(=O)[C@H](Cc1ccc(OP(=O)(O)O)cc1)NC(=O)[C@H](CCC(=O)O)NC(=O)[C@@H](NC(=O)[C@@H](NC(=O)[C@H](CO)NC(=O)[C@H](C)NC(=O)[C@@H](NC(=O)[C@@H](N)CO)[C@@H](C)O)[C@@H](C)O)C(C)C)[C@@H](C)O)C(C)C)C(=O)N[C@@H](C)C(=O)N[C@@H](CO)C(=O)NCC(N)=O [STASTVE(pY)STVVASG] (H-STASTVE[pY]STVVASG-NH2; N-terminus assumed)	SOCS-3 (Mus musculus, UniProt O35718)	7.0

Turning now to a further record.
Lab note: CC(C)[C@H](NC(=O)[C@H](C)NC(=O)[C@@H](NC(=O)[C@H](CO)NC(=O)[C@H](Cc1ccc(OP(=O)(O)O)cc1)NC(=O)[C@H](CCC(=O)O)NC(=O)[C@@H](NC(=O)[C@@H](NC(=O)[C@H](CO)NC(=O)[C@H](C)NC(=O)[C@@H](NC(=O)[C@@H](N)CO)[C@@H](C)O)[C@@H](C)O)C(C)C)[C@@H](C)O)C(=O)N[C@@H](Cc1c[nH]cn1)C(=O)N[C@@H](CO)C(=O)NCC(N)=O [STASTVE(pY)STAVHSG] (H-STASTVE[pY]STAVHSG-NH2; N-terminus assumed) gave IC50 analogue/IC50 wild-type of 31
